Target: T1, human IL-18 binding protein (IL-18BP) (human, UniProt O95998 31-194)
T1 sequence (looked up): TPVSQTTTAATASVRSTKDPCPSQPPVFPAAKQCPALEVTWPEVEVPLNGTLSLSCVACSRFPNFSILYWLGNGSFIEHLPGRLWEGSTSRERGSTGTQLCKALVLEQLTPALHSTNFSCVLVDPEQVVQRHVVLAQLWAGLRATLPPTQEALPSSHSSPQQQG
Test: cell-based or functional assay
For each of the binders below, state its Fold Change (BP/NO BP), 50 nM BP.
Give bare numbers, in fold.

IL-18 variant G3V, M60K (ligand) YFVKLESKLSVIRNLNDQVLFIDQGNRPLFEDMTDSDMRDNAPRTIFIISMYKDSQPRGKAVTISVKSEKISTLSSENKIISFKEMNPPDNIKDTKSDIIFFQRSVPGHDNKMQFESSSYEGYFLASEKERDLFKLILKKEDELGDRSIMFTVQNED    1.25

Dear colleague, could you please provide Fold Change (BP/NO BP), 50 nM BP for the binders listed below?
1. IL-18 variant M60K, D157E (ligand) YFGKLESKLSVIRNLNDQVLFIDQGNRPLFEDMTDSDMRDNAPRTIFIISMYKDSQPRGKAVTISVKSEKISTLSSENKIISFKEMNPPDNIKDTKSDIIFFQRSVPGHDNKMQFESSSYEGYFLASEKERDLFKLILKKEDELGDRSIMFTVQNEE
2. IL-18 variant G3V, E6K, K53A (ligand, also called G3V, K53A, E6K) YFVKLKSKLSVIRNLNDQVLFIDQGNRPLFEDMTDSDMRDNAPRTIFIISMYADSQPRGMAVTISVKSEKISTLSSENKIISFKEMNPPDNIKDTKSDIIFFQRSVPGHDNKMQFESSSYEGYFLASEKERDLFKLILKKEDELGDRSIMFTVQNED

[out]
1.25
8.67
